Molecular target: T1, IL10Rα/IL2Rγ receptor (human, UniProt Q13651 22-578; P31785 23-369)
T1 sequence (looked up) 1: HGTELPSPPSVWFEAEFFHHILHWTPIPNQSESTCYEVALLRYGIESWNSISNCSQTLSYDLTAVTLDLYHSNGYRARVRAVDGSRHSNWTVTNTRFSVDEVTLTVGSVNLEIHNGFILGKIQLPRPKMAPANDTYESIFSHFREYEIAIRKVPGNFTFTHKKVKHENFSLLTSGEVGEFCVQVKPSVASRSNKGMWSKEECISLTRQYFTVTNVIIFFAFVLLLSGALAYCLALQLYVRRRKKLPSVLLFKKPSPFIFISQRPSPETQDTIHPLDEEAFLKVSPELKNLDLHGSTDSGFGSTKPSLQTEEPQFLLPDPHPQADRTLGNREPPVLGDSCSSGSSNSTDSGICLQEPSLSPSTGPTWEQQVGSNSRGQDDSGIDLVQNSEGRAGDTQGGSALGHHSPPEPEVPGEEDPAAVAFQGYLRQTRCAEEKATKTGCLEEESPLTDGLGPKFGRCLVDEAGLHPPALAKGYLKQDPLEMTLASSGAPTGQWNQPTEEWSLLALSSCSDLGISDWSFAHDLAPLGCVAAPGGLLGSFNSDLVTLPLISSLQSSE
T1 sequence (looked up) 2: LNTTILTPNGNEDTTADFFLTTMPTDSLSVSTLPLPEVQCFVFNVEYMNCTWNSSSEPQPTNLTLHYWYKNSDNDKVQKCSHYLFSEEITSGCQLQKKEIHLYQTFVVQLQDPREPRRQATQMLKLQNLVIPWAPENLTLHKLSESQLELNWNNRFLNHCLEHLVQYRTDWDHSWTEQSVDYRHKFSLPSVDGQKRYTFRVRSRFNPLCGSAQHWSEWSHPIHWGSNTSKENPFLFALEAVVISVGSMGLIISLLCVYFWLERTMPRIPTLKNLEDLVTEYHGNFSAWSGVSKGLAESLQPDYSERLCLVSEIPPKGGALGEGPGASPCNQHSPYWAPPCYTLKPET
Assay: cell-based or functional assay
Would you mind telling me the reported pSTAT3 MFI, CD8 T cells, 1 nM (unstimulated 1446) of each entry?
Answers are plain numbers, in MFI.

Consider the reported pSTAT3 MFI, CD8 T cells, 1 nM (unstimulated 1446) for these binders:
DR471(DR241-DR231) (bispecific antibody) QVQLQESGGGSVQAGGSLRLSCAASGYSNCSYDMTWYRQAPGKEREFVSAIHSDGSTRYADSVKGRFFISQDNAKNTVYLQMNSLKPEDTAMYYCKTDPLHCRAHGGSWYSVRANYWGQGTQVTVSSGGGSQVQLQESGGGSVQAGGSLRLSCTASGFTFDDREMNWYRQAPGNECELVSTISSDGSTYYADSVKGRFTISQDNAKNTVYLQMDSVKPEDTAVYYCAADFMIAIQAPGAGCWGQGTQVTVSSASHHHHHH | 3280
DR395(DR229-DR239) (bispecific antibody) QVQLQESGGGLVQPGGSLRLSCTASGFSFSSYPMTWARQAPGKGLEWVSTIASDGGSTAYAASVEGRFTISRDNAKSTLYLQLNSLKTEDTAMYYCTKGYGDGTPAPGQGTQVTVSSGGGSQVQLQESGGGSVQAGGSLRLSCTVSGYTYSSNCMGWFRQAPGKEREGVATIYTGGGNTYYADSVKGRFTISQDNAKNTVYLQMNNLKPEDTAMYYCAAEPLSRVYGGSCPTPTFDYWGQGTQVTVSSASHHHHHH | 3320
DR441(DR236-DR231) (bispecific antibody) QVQLQESGGGSVQAGGSLRLSCAASRFTYSSYCMGWFRQAPGKEREGVASIDSDGSTSYTDSVKGRFTISKDNAKNTLYLQMNSLKPEDTAMYYCALDLMSTVVPGFCGFLLSAGMDYWGKGTQVTVSSGGGSQVQLQESGGGSVQAGGSLRLSCTASGFTFDDREMNWYRQAPGNECELVSTISSDGSTYYADSVKGRFTISQDNAKNTVYLQMDSVKPEDTAVYYCAADFMIAIQAPGAGCWGQGTQVTVSSASHHHHHH | 3060

Proceeding to the next binder to report its pSTAT3 MFI, CD8 T cells, 1 nM (unstimulated 1446).
Exercise: State its pSTAT3 MFI, CD8 T cells, 1 nM (unstimulated 1446): DR465(DR240-DR231) (bispecific antibody) QVQLQESGGGSVQAGGSLRLSCGASGYTYSSYCMGWFRQVPGKEREGVAVIDSDGSTSYADSVKGRFTISKDNGKNTLYLQMNSLKPEDTAMYYCAADLGHYRPPCGVLYLGMDYWGKGTQVTVSSGGGSQVQLQESGGGSVQAGGSLRLSCTASGFTFDDREMNWYRQAPGNECELVSTISSDGSTYYADSVKGRFTISQDNAKNTVYLQMDSVKPEDTAVYYCAADFMIAIQAPGAGCWGQGTQVTVSSASHHHHHH
Key: 3260
